All figures here come from PubChem BioAssay (Tox21).

experiment: qHTS assay to identify small molecule agonists of the constitutive androstane receptor (CAR) signaling pathway - cell viability counter screen (AID 1224836); settings: HepG2-CYP2B6-hCAR viability, CellTiter-Fluor, 23 h, PK11195 added to every well; series mostly up to 92.4 µM; also: % is scaled to controls: 0 for no effect and ±100 for the full control effect; nearly all actives have a fitted effect of over 45% in size
Records with an inconclusive call do not appear. Active and inactive are the calls of the source. Calls follow the shape of the dose curve; as a rule, active = well fitted cell-killing curve with a large enough effect in the repeat runs; inconclusive = weak or mixed curves, or effect the other way; inactive = flat fitted curve, though single readings scatter.
Reply using exactly one outcome from active, inactive

Here are 3 compounds together with their reported answers.
Req: Just curious, what result did `NC(=O)CCCCC(N)=O` get here?
Resp: inactive

Req: What about this compound? CCCCCCC(O)CCCCCCCCCCC(=O)OC (configuration not stated)
Resp: inactive

Req: What about this compound? CC(=O)OCCC(C)CC(C)(C)C (configuration not stated)
Resp: inactive

Further cases:
Req: Just curious, what result did `Cc1ccc(NC(=O)N(C)C)cc1NC(=O)N(C)C` get here?
Resp: inactive

Req: What about this compound? `O=c1[nH]c2cc(C(F)(F)F)c(N3CCOCC3)cc2n(CP(=O)(O)O)c1=O`
Resp: inactive

Req: What about this compound? `O=C(O)CCC(=O)c1ccc(-c2ccccc2)cc1`
Resp: inactive

---

molecular target: Aryl hydrocarbon receptor (Homo sapiens); assay: qHTS assay to identify small molecule that activate the aryl hydrocarbon receptor (AhR) signaling pathway (AID 743085); conditions: HepG2 AhR-luc (HG2L7.5c1), luciferase, 24 h; series mostly up to 70.3 µM; also: nearly all actives have a fitted effect of over 15% in size; also: potency is read from the fitted curve at half-maximal effect;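 as to activation: HG2L7.5c1 human HepG2 liver cells with stably integrated DRE-driven firefly reporter; % is scaled to controls: 0 for no effect and ±100 for the full control effect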
Records with an inconclusive call do not appear. Activity calls are given as the source filed them. Calls follow the shape of the dose curve; as a rule, active = well fitted activation curve with a large enough effect in the repeat runs; inconclusive = weak or mixed curves; inactive = no such curve, though single readings can be large or run the other way.
recordedMetric: Potency

Observe how each entry below is paired with its result.
Req: Form: Entry = `CC(CO)(CO)C(=O)O` | System = Aryl hydrocarbon receptor (Homo sapiens) | Potency = ____
Resp: inactive

Req: What about this compound? `O=C(O)c1cc(Cl)cc(Cl)c1O`
Resp: inactive

Req: What about this compound? `O=C(C(=O)c1ccco1)c1ccco1`
Resp: inactive

Req: What about this compound? `CCCCCCCC/C=C\CCCCCCCC(=O)OCCO`
Resp: inactive

Req: What about this compound? `NC(=O)c1ccccc1[N+](=O)[O-]`
Resp: inactive

Further cases:
Req: Form: Entry = `Nc1nc2ccc(OC(F)(F)F)cc2s1` | System = Aryl hydrocarbon receptor (Homo sapiens) | Potency = ____
Resp: 10.6 µM (active)

Req: What about this compound? `COc1ccc(-c2cc(=S)ss2)cc1`
Resp: 29.8 µM (active)

Req: What about this compound? `O=C(O)CCS`
Resp: inactive

Req: What about this compound? `CC(C)N=C=NC(C)C`
Resp: inactive

Req: What about this compound? `O=C1c2ccccc2C(=O)c2c(O)ccc(O)c21`
Resp: 7.7 µM (active)

Req: What about this compound? `CCCCCC`
Resp: inactive

Req: What about this compound? `CC(=O)OCC1=C(C(=O)O)N2C(=O)[C@@H](NC(=O)CSc3ccncc3)[C@H]2SC1`
Resp: inactive

Req: What about this compound? `NC(=O)CCCCC(N)=O`
Resp: inactive

Req: What about this compound? CC(O)Cn1cnc2c1c(=O)n(C)c(=O)n2C (configuration not stated)
Resp: inactive

Req: What about this compound? `CCOCCC(=O)OCC`
Resp: inactive

Req: What about this compound? `C=C(C)C(=O)OCCC(F)(F)C(F)(F)C(F)(F)C(F)(F)C(F)(F)C(F)(F)F`
Resp: inactive

Req: What about this compound? `CC(=O)NCCO`
Resp: inactive

---

test: Caspase-3/7 induction in HepG2 cells by small molecules, qHTS cell viability counter screen (AID 1346981); details: CellTiter-Fluor fluorescence, 17 h; series mostly up to 92.4 µM; also: nearly all actives have a fitted effect of over 30% in size
Results filed as inconclusive are left out. Calls of active or inactive are those of the source. The call rests on the fitted dose curve; in most records, active means well fitted cell-killing curve with a large enough effect in the repeat runs; inconclusive means weak or mixed curves, or effect the other way; inactive means flat fitted curve, though single readings scatter.
Reply using exactly one outcome from active, inactive

Req: Just curious, what result did `CC1=CC[C@@]23C[C@@H]1C(C)(C)[C@@H]2CC[C@H]3C` get here?
Resp: inactive

Req: What about this compound? `CC(=O)c1ccc[nH]1`
Resp: inactive

Req: What about this compound? CNS(=O)(=O)c1cc(C(=O)N2CCC(CCN3C4CCC3CC(n3c(C)nc5ccccc53)C4)(c3cccc(F)c3)CC2)c(Cl)cc1F (stereo unspecified)
Resp: active

Req: What about this compound? COC(=O)CC(C(C)=O)C(=O)OC (stereo unspecified)
Resp: inactive

Req: What about this compound? `C/C(C=O)=C\c1ccccc1`
Resp: inactive

Req: What about this compound? `Cc1oc(=O)oc1COC(=O)[C@@H]1N2C(=O)[C@@H](NC(=O)[C@H](N)c3ccccc3)[C@H]2SC1(C)C`
Resp: inactive

Req: What about this compound? `N[C@@H](Cc1cc(I)c(O)c(I)c1)C(=O)O`
Resp: inactive

Req: What about this compound? `BrC(Br)C(Br)Br`
Resp: inactive

Further cases:
Req: Just curious, what result did CC(=O)OC(C)C[N+](C)(C)C (stereo unspecified) get here?
Resp: inactive

Req: What about this compound? CCCCCCC(CO)CCCC (stereo unspecified)
Resp: inactive

Req: What about this compound? `CNCc1ccc(NC(=O)c2c[nH]c3c2C(=O)CCC3)cc1`
Resp: inactive

---

assay: qHTS assay for small molecule agonists of the antioxidant response element (ARE) signaling pathway (AID 743202); conditions: HepG2 ARE-bla reporter, beta-lactamase FRET, 16 h; series mostly up to 73.3 µM; as to activation: % is scaled to controls: 0 for no effect and ±100 for the full control effect
Records with an inconclusive call do not appear. The source made the active and inactive calls. Calls come from the whole dose curve; as a rule, active = well fitted activation curve with a large enough effect in the signal ratio in the repeat runs (not every such curve was filed as active); inconclusive = weak or mixed curves, or effect the other way; inactive = no such curve, though single readings can be large or run the other way; the % refers to the signal ratio.
Reply using exactly one outcome from yes (1) (active), no (0) (inactive)

Req: Just curious, what result did `CC(=O)OCC(=O)[C@@]1(OC(C)=O)[C@@H](C)C[C@H]2[C@@H]3C[C@H](F)C4=CC(=O)C=C[C@]4(C)[C@@]3(F)[C@@H](O)C[C@@]21C` get here?
Resp: no (0)

Further cases:
Req: Just curious, what result did `O=C(c1ccccc1)C1CCC1` get here?
Resp: no (0)

Req: What about this compound? `c1ccc2sc(SSc3nc4ccccc4s3)nc2c1`
Resp: yes (1)

Req: What about this compound? CC(C(=O)O)c1ccc(C(=O)c2cccs2)cc1 (centres undefined)
Resp: no (0)

---

biological target: Progesterone receptor (Homo sapiens); experiment: qHTS assay to identify small molecule agonists of the progesterone receptor (PR) signaling pathway (AID 1346784); settings: PR-UAS-bla HEK293T, beta-lactamase FRET ratio, 16 h; series mostly up to 92.4 µM; also: nearly all actives have a fitted effect of over 30% in size
Inconclusive results are not listed. The source made the active and inactive calls. The call rests on the fitted dose curve.
Reply using exactly one outcome from yes = active, no = inactive

Here are 5 molecules together with their reported answers.
Req: Just curious, what result did `[Cl][Nd]([Cl])[Cl]` get here?
Resp: no

Req: What about this molecule? CCOC(=O)C(C)O (stereo not given)
Resp: no

Req: What about this molecule? `CC(C)c1ccc(C#N)cc1`
Resp: no

Req: What about this molecule? `CC(C)N(C)C`
Resp: no

Req: What about this molecule? `COc1ccc(-c2cc(C(F)F)nn2-c2ccc(S(N)(=O)=O)cc2)cc1F`
Resp: no

Further cases:
Req: Just curious, what result did `CC1=CC[C@@]23C[C@@H]1C(C)(C)[C@@H]2CC[C@H]3C` get here?
Resp: no

Req: What about this molecule? `Nc1cccc2c(N)cccc12`
Resp: yes

Req: What about this molecule? `Nc1ccc(F)cc1`
Resp: yes

Req: What about this molecule? CCCCCCC(O)CCOC(C)=O (stereo not given)
Resp: no

Req: What about this molecule? `CC(C)(O)CCc1ccccc1`
Resp: no

Req: What about this molecule? `CCCCC[C@H](O)/C=C/[C@H]1[C@H](O)CC(=O)[C@@H]1C/C=C\CCCC(=O)O`
Resp: no

Req: What about this molecule? CCCCC(CC)COS(=O)(=O)O (stereo not given)
Resp: no

Req: What about this molecule? `O=C(O)CCC(=O)OC[C@@H](NC(=O)C(Cl)Cl)[C@H](O)c1ccc([N+](=O)[O-])cc1`
Resp: no

Req: What about this molecule? `O=C(Oc1ccccc1)c1ccc2ccccc2c1O`
Resp: no

Req: What about this molecule? `Cc1c(C2(c3cc(Br)c(O)c(Br)c3C)OS(=O)(=O)c3ccccc32)cc(Br)c(O)c1Br`
Resp: no

Req: What about this molecule? CCO[Si](C)(CCCOCC1CO1)OCC (stereo not given)
Resp: no

Req: What about this molecule? `CC(C)C(=O)OCCOc1ccccc1`
Resp: no

Req: What about this molecule? CC1CCc2nccnc21 (stereo not given)
Resp: no

Req: What about this molecule? `O=C(O)/C=C/c1ccc(O)c(O)c1`
Resp: no

Req: What about this molecule? `C=C(C)c1ccccc1`
Resp: yes

Req: What about this molecule? `Cc1ccc(N(CCO)CCO)cc1`
Resp: no

Req: What about this molecule? `CCCOC(=O)c1c(Cl)c(Cl)c(Cl)c(Cl)c1C(=O)OCCC`
Resp: no

Req: What about this molecule? `O=C(c1ccccc1)C1CCC1`
Resp: no

Req: What about this molecule? `O=C(CCS)OCC(COC(=O)CCS)(COC(=O)CCS)COC(=O)CCS`
Resp: no
